Reported SI (selectivity index) values for a set of compounds
- System: HCV infectious virus J399EM
- assay details: Anti-HCV assay in authentic HCV infection/replication system (J399EM EGFP reporter virus) in Huh7.5.1 cells
- Assay type: cell-based, hepatitis C virus (JFH1-derived, genotype 2a)
- test settings: ratio of CC50 to EC50, Huh7.5.1 cells
readout: SI (selectivity index)

{"compound": "O=C(Oc1c(-c2ccc(O)c(O)c2)oc2cc(O)cc(O)c2c1=O)c1ccccc1 [Compound 4a]", "system under test": "HCV infectious virus J399EM", "readout": "SI (selectivity index)", "reading": ">3.5"}
{"compound": "O=c1c(O)c(-c2ccc(O)c(O)c2)oc2cc(OCc3ccccc3)cc(O)c12 [Compound 3a]", "system under test": "HCV infectious virus J399EM", "readout": "SI (selectivity index)", "reading": ">5.8"}
{"compound": "O=C(Oc1c(-c2ccc(O)c(O)c2)oc2cc(O)cc(O)c2c1=O)c1cccc(F)c1 [Compound 4f]", "system under test": "HCV infectious virus J399EM", "readout": "SI (selectivity index)", "reading": ">5.6"}
{"compound": "O=c1c(O)c(-c2ccc(O)c(O)c2)oc2cc(O)cc(O)c12 [Compound 2, quercetin]", "system under test": "HCV infectious virus J399EM", "readout": "SI (selectivity index)", "reading": ">2.5"}
{"compound": "N#Cc1cccc(C(=O)Oc2c(-c3ccc(O)c(O)c3)oc3cc(O)cc(O)c3c2=O)c1 [Compound 4i]", "system under test": "HCV infectious virus J399EM", "readout": "SI (selectivity index)", "reading": ">3.8"}
{"compound": "COc1cccc(C(=O)Oc2c(-c3ccc(O)c(O)c3)oc3cc(O)cc(O)c3c2=O)c1 [Compound 4h]", "system under test": "HCV infectious virus J399EM", "readout": "SI (selectivity index)", "reading": ">3.2"}
{"compound": "N#Cc1ccc(COc2cc(O)c3c(=O)c(O)c(-c4ccc(O)c(O)c4)oc3c2)cc1 [Compound 3r]", "system under test": "HCV infectious virus J399EM", "readout": "SI (selectivity index)", "reading": 1.6}
{"compound": "O=c1c(O)c(-c2ccc(O)c(O)c2)oc2cc(OCc3ccc(Br)cc3)cc(O)c12 [Compound 3p]", "system under test": "HCV infectious virus J399EM", "readout": "SI (selectivity index)", "reading": 6.4}
{"compound": "Nc1cccc(C(=O)Oc2c(-c3ccc(O)c(O)c3)oc3cc(O)cc(O)c3c2=O)c1 [Compound 4g]", "system under test": "HCV infectious virus J399EM", "readout": "SI (selectivity index)", "reading": ">2.4"}
{"compound": "O=c1c(O)c(-c2ccc(O)c(O)c2)oc2cc(OCc3ccccc3F)cc(O)c12 [Compound 3b]", "system under test": "HCV infectious virus J399EM", "readout": "SI (selectivity index)", "reading": 3.1}
{"compound": "N#Cc1ccccc1COc1cc(O)c2c(=O)c(O)c(-c3ccc(O)c(O)c3)oc2c1 [Compound 3f]", "system under test": "HCV infectious virus J399EM", "readout": "SI (selectivity index)", "reading": 1.7}
{"compound": "O=c1c(O)c(-c2ccc(O)c(O)c2)oc2cc(OCc3ccc([N+](=O)[O-])cc3)cc(O)c12 [Compound 3s]", "system under test": "HCV infectious virus J399EM", "readout": "SI (selectivity index)", "reading": 4.5}
{"compound": "COc1c(-c2ccc(O)c(O)c2)oc2cc(O)cc(O)c2c1=O [Compound 12a]", "system under test": "HCV infectious virus J399EM", "readout": "SI (selectivity index)", "reading": ">4.5"}
{"compound": "O=c1c(O)c(-c2ccc(O)c(O)c2)oc2cc(OCc3cccc(Cl)c3)cc(O)c12 [Compound 3i]", "system under test": "HCV infectious virus J399EM", "readout": "SI (selectivity index)", "reading": 7.2}
{"compound": "Cc1ccccc1COc1cc(O)c2c(=O)c(O)c(-c3ccc(O)c(O)c3)oc2c1 [Compound 3e]", "system under test": "HCV infectious virus J399EM", "readout": "SI (selectivity index)", "reading": 4.4}
{"compound": "N#Cc1ccccc1C(=O)Oc1c(-c2ccc(O)c(O)c2)oc2cc(O)cc(O)c2c1=O [Compound 4e]", "system under test": "HCV infectious virus J399EM", "readout": "SI (selectivity index)", "reading": ">2.5"}
{"compound": "O=C(Oc1c(-c2ccc(O)c(O)c2)oc2cc(O)cc(O)c2c1=O)c1ccc(Cl)cc1 [Compound 4o]", "system under test": "HCV infectious virus J399EM", "readout": "SI (selectivity index)", "reading": ">3.5"}
{"compound": "O=c1c(OCCO)c(-c2ccc(O)c(O)c2)oc2cc(O)cc(O)c12 [Compound 12c]", "system under test": "HCV infectious virus J399EM", "readout": "SI (selectivity index)", "reading": ">1.9"}
